# reported IC50; entries follow
- STUDY_SYSTEM: human ENPP1 (Homo sapiens, UniProt P22413)
- Construct: made in house
- Sequence (P22413 whole entry): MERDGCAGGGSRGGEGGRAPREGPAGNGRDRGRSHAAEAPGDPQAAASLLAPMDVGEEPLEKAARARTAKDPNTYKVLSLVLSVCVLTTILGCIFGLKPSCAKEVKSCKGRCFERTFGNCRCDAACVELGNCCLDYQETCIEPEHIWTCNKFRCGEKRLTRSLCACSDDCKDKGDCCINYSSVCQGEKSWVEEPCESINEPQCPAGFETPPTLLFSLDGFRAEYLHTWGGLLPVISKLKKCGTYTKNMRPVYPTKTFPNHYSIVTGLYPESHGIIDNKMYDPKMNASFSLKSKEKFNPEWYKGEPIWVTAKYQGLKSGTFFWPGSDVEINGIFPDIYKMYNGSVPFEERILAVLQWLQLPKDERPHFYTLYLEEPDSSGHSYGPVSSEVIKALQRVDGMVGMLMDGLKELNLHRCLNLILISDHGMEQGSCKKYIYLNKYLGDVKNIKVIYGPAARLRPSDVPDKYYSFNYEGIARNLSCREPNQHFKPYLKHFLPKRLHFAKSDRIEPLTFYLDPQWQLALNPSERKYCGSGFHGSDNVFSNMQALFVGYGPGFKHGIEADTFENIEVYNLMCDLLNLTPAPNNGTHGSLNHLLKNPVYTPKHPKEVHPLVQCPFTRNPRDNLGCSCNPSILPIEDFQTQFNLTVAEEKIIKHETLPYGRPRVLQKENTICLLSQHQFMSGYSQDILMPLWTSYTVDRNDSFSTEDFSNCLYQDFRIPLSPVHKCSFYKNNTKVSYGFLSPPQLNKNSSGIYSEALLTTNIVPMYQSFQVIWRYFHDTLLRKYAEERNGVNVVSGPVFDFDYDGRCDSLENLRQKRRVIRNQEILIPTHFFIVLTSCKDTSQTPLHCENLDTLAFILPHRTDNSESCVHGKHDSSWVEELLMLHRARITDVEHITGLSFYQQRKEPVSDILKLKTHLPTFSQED
- PROTOCOL: ENPP1 assay with ATP substrate (Transcreener AMP2/GMP2 TR-FRET)
- Assay type: biochemical
- TEST_PARAMETERS: 1 hour at room temperature

CN(c1nc(-c2ccccn2)nc2scc(-c3ccccc3)c12)C1CCCC1 [Example 1.36]    > 20 µM
Cc1csc2c(N3CCC(NCCCc4ccc(F)cc4)CC3)ncnc12 [Example 3.5]    0.1 to 1 µM
Cn1ncc2c(NCc3ccc(S(N)(=O)=O)cc3)nc(N)nc21 [Example 2.37]    0.1 to 1 µM
Cn1ncc2c(NCc3ccc(S(N)(=O)=O)cc3F)nc(Cl)nc21 [Example 2.140]    0.1 to 1 µM
CNc1nc(NCc2ccc(S(N)(=O)=O)cc2)c2cnn(C)c2n1 [Example 2.27]    < 0.1 µM

Data request: Report IC50 for Cc1csc2c(N3CCC(NCCCc4ccccc4)CC3)ncnc12 [Example 3.27] please.
Data returned: 0.1 to 1 µM

Data request: What do we get for NS(=O)(=O)c1ccc(CNc2nc(N3CCOCC3)nc3scc(-c4ccccc4)c23)cc1 [Example 1.38] ?
Data returned: < 0.1 µM

Data request: What do we get for Cc1ccccc1CCC(=O)NC1CCN(c2ncnc3c(C)csc23)CC1 [Example 3.14] ?
Data returned: > 20 µM

Data request: What do we get for NS(=O)(=O)c1ccc(CNc2nc(-c3ccccn3)nc3scc(-c4ccccc4)c23)cc1F [Example 1.13] ?
Data returned: < 0.1 µM

###

- STUDY_SYSTEM: human ENPP1 (Homo sapiens)
- Construct: made in house
- PROTOCOL: ENPP1 assay with ATP substrate (Transcreener AMP2/GMP2 TR-FRET)
- Assay type: biochemical
- TEST_PARAMETERS: 1 hour at room temperature
ENDPOINT_LABEL: IC50

Cc1ccncc1CCCNC1CCN(c2nc(NCCO)nc3c(C)csc23)CC1 [Example 3.71]    0.1 to 1 µM
Cc1csc2c(N3CCC(NCCOc4ccc(F)cc4)CC3)ncnc12 [Example 3.23]    > 20 µM
CCNc1nc(NCc2ccc(S(N)(=O)=O)cn2)c2cnn(C)c2n1 [Example 2.139]    1 to 20 µM
Cc1csc2c(N3CCC(NC(=O)COc4ccc(F)cc4)CC3)ncnc12 [Example 3.22]    1 to 20 µM
Cc1cnccc1CCC(=O)NC1CCN(c2ncnc3c(C)csc23)CC1 [Example 3.34]    > 20 µM
Cn1ncc2c(NCc3ccc(S(N)(=O)=O)cc3)cc(NCCO)nc21 [Example 2.81]    1 to 20 µM
NS(=O)(=O)c1ccc(CNc2nc(NCCO)nc3scc(-c4ccccc4)c23)cc1 [Example 1.50]    < 0.1 µM

Data request: API: value(readout= IC50, system= human ENPP1 (Homo sapiens), query= COc1cc(S(N)(=O)=O)ccc1CNc1ccnc2c1cnn2C [Example 2.63] )
Data returned: 0.1 to 1 µM

###

- STUDY_SYSTEM: human ENPP1 (Homo sapiens, UniProt P22413)
- Construct: made in house
- PROTOCOL: ENPP1 assay with ATP substrate (Transcreener AMP2/GMP2 TR-FRET)
- Type: biochemical
- TEST_PARAMETERS: 1 hour at room temperature
# reported IC50; entries follow

Worked cases, IC50 given:
COc1ccc(CCC(=O)NC2CCN(c3ncnc4c(C)csc34)CC2)cc1 [Example 3.31]    > 20 µM
Cc1cnccc1CCCNC1CCN(c2ncnc3c(C)csc23)CC1 [Example 3.35]    0.1 to 1 µM
NS(=O)(=O)c1ccc(CNc2nc(-c3ccccn3)nc3scc(-c4ccccc4)c23)cc1C(F)(F)F [Example 1.14]    < 0.1 µM
Cn1nc(-c2ccccn2)c2c(NCc3ccc(S(N)(=O)=O)cc3)nc(Cl)nc21 [Example 2.124]    0.1 to 1 µM
Cc1nsc2c(N3CCC(NCCCc4ccc(F)cc4)CC3)ncnc12 [Example 3.59]    1 to 20 µM

Data request: API: value(readout= IC50, system= human ENPP1 (Homo sapiens, UniProt P22413), query= NS(=O)(=O)c1ccc(CNc2nc(-c3ccccc3)nc3scc(-c4ccccc4)c23)cc1 [Example 1.24] )
Data returned: > 20 µM

Data request: What do we get for COCCCNc1nc(NCc2ccc(S(N)(=O)=O)cc2)c2c(-c3ccccc3)csc2n1 [Example 1.56] ?
Data returned: < 0.1 µM

Data request: What do we get for NS(=O)(=O)N1CCC(CNc2ncnc3scc(-c4ccccc4)c23)CC1 [Example 1.66] ?
Data returned: 0.1 to 1 µM

Data request: What do we get for COc1cc(CNc2ncnc3c2cnn3C)ccc1S(N)(=O)=O [Example 2.42] ?
Data returned: > 20 µM

Data request: What do we get for Cc1csc2c(N3CCC(NCCCc4ccccn4)CC3)ncnc12 [Example 3.3] ?
Data returned: 0.1 to 1 µM

###

# reported IC50; entries follow
- STUDY_SYSTEM: ENPP3 (Homo sapiens, UniProt O14638)
- Sequence (O14638 whole entry, species assumed): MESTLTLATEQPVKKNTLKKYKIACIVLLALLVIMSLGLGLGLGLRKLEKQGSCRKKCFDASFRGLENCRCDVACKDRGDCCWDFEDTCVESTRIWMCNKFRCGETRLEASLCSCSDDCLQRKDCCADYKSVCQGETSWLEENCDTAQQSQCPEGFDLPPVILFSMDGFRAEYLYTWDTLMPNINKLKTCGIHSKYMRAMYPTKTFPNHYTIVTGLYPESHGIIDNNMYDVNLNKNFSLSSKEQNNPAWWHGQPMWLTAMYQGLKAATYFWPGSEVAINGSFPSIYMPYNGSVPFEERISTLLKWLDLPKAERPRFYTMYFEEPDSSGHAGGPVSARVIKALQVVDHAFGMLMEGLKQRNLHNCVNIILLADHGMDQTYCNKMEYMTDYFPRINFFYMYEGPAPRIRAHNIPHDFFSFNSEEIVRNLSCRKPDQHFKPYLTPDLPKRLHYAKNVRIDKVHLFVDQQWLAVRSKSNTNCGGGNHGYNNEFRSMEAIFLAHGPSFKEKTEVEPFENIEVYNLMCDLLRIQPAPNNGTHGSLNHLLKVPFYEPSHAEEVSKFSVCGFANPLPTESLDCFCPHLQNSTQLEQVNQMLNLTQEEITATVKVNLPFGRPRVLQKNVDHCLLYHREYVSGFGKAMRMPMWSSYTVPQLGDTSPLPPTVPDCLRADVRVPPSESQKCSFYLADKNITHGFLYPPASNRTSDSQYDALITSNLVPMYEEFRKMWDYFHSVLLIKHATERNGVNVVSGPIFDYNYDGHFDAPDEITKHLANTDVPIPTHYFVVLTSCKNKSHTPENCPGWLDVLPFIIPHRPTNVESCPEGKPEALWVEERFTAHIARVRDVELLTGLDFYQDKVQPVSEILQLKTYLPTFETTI
- PROTOCOL: ENPP3 Km ATP assay
- Assay type: biochemical
- TEST_PARAMETERS: ATP at Km

Worked cases, IC50 given:
CCn1ncc2c(NCc3ccc(S(N)(=O)=O)cc3)nc(OCCC(C)(C)OC)nc21 [Example 2.98]    1 to 20 µM
CCc1nc(N2CCC(NCCCc3ccncc3)CC2)c2scc(C)c2n1 [Example 3.54]    > 20 µM
Cn1ncc2c(NCc3ccc(S(N)(=O)=O)cn3)cc(Cl)nc21 [Example 2.142]    0.1 to 1 µM
Cn1ncc2ncnc(NCc3ccc(S(N)(=O)=O)cc3)c21 [Example 2.54]    1 to 20 µM
Cc1csc2c(N3CCC(NC(=O)CCc4cccc(F)c4)CC3)ncnc12 [Example 3.39]    > 20 µM
Cc1cc(CNc2ncnc3c2cnn3C)ccc1S(N)(=O)=O [Example 2.46]    1 to 20 µM
NS(=O)(=O)c1ccc(CNc2nc(NC3CC3)nc3scc(-c4ccccc4)c23)cc1 [Example 1.26]    < 0.1 µM
NS(=O)(=O)c1ccc(CNc2nc(-c3ccccn3)nc3scc(-c4ccccc4)c23)cc1 [Example 1.6]    < 0.1 µM
Cc1nsc2c(N3CCC(NCCCc4ccc(F)cc4)CC3)ncnc12 [Example 3.59]    > 20 µM
Cn1nc(Cl)c2c(NCc3ccc(S(N)(=O)=O)cc3)ncnc21 [Example 2.90]    0.1 to 1 µM

Data request: Report IC50 for Cn1ncc2c(NCc3ccc(S(N)(=O)=O)cc3)ncnc21 [Example 2.25] please.
Data returned: 1 to 20 µM

Data request: What do we get for Cc1cc(CNc2nc(-c3ccccn3)nc3scc(-c4ccccc4)c23)ccc1S(N)(=O)=O [Example 1.19] ?
Data returned: 0.1 to 1 µM

Data request: What do we get for Cc1csc2c(N3CCC(NCCCc4ccc(Cl)cc4)CC3)ncnc12 [Example 3.28] ?
Data returned: > 20 µM

Data request: What do we get for NS(=O)(=O)c1ccc(CNc2ncnc3c2cnn3-c2ccccc2)cc1 [Example 2.38] ?
Data returned: 1 to 20 µM

###

- STUDY_SYSTEM: human ENPP1 (Homo sapiens)
- Construct: made in house
- PROTOCOL: ENPP1 assay with ATP substrate (Transcreener AMP2/GMP2 TR-FRET)
- Format: biochemical
- TEST_PARAMETERS: 1 hour at room temperature
# reported IC50; entries follow

COc1nc(NCc2ccc(S(N)(=O)=O)s2)c2cnn(C)c2n1    0.1 to 1 µM

Data request: Report IC50 for CCOc1nc(NCc2ccc(S(N)(=O)=O)cc2)c2cnn(C)c2n1 please.
Data returned: < 0.1 µM

Data request: What do we get for C=Cc1nc(NCc2ccc(S(N)(=O)=O)cc2)c2cnn(C)c2n1 ?
Data returned: < 0.1 µM

Data request: What do we get for Cc1csc2c(N3CCC(NCCc4ccncc4)CC3)ncnc12 ?
Data returned: 0.1 to 1 µM

Data request: What do we get for Cc1nc(NCc2ccc(S(N)(=O)=O)cc2)c2c(C3CCCC3)nn(C)c2n1 ?
Data returned: 1 to 20 µM

###

# reported IC50; entries follow
- STUDY_SYSTEM: ENPP3 (Homo sapiens)
- PROTOCOL: ENPP3 Km ATP assay
- Format: biochemical
- TEST_PARAMETERS: ATP at Km

Worked cases, IC50 given:
Cc1csc2c(N3CCC(NC(=O)CCc4cccc(Cl)c4)CC3)ncnc12    > 20 µM
Cc1csc2c(N3CCC(NCCCc4ccncc4)CC3)ncnc12    > 20 µM
Cn1ncc2c(NCc3ccc(S(N)(=O)=O)cc3)cc(N3CCOCC3)nc21    1 to 20 µM

Data request: Report IC50 for Cc1noc2ncnc(NCc3ccc(S(N)(=O)=O)cc3)c12 please.
Data returned: 1 to 20 µM

Data request: What do we get for CC(C)CCOc1nc(NCc2ccc(S(N)(=O)=O)cc2)c2cnn(C)c2n1 ?
Data returned: 0.1 to 1 µM

Data request: What do we get for Cc1csc2c(N3CCC(NCCCc4cccc(C(F)(F)F)c4)CC3)ncnc12 ?
Data returned: > 20 µM

Data request: What do we get for CN1CCN(c2nc(N3CCC(NCCCc4ccncc4)CC3)c3cnn(C)c3n2)CC1 ?
Data returned: > 20 µM

Data request: What do we get for O=C(CCc1ccc(F)cc1)NC1CCN(c2ncnc3ccsc23)CC1 ?
Data returned: > 20 µM

Data request: What do we get for NS(=O)(=O)c1ccc(CNc2nc(-c3ccncc3)nc3scc(-c4ccccc4)c23)s1 ?
Data returned: > 20 µM

Data request: What do we get for Cn1ncc2c(NCc3ccc(S(N)(=O)=O)cc3Cl)ccnc21 ?
Data returned: 0.1 to 1 µM

Data request: What do we get for Cn1nc(-c2ccccn2)c2c(NCc3ccc(S(N)(=O)=O)cc3)nc(Cl)nc21 ?
Data returned: 0.1 to 1 µM

Data request: What do we get for CCn1ncc2c(NCc3ccc(S(N)(=O)=O)cc3)nc(Cl)nc21 ?
Data returned: 1 to 20 µM

Data request: What do we get for Cc1csc2c(N3CCC(NCCCc4ccc(F)cc4)CC3)ncnc12 ?
Data returned: > 20 µM

Data request: What do we get for CSc1nc(NCc2ccc(S(N)(=O)=O)cc2)c2cnn(C)c2n1 ?
Data returned: < 0.1 µM
